Please go through the items and note down their pIC50.
Assay System: KRAS G12D (amino acids 1-169) (Homo sapiens, UniProt P01116, G12D)
Sequence (P01116 with tags, fused parts or gaps isoform P01116-2 G12D): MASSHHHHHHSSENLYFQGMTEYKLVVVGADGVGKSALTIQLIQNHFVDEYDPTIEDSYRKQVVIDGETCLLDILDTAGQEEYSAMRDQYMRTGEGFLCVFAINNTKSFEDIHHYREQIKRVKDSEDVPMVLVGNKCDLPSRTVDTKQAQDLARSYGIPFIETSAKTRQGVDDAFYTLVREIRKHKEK
Method Summary: SOS-catalyzed nucleotide exchange assay (Procedure B, BODIPY FL GDP displacement), KRAS G12D
Condition: read-out: KRAS G12D GNE IC50
// returns pIC50 (minus log10 of molar concentration), number only

Ask: Requested read-out: pIC50. Entry: `C[C@@]1(O)COCCN(c2nc(OC[C@@]34CCCN3C[C@H](F)C4)nc3sc4c(-c5c6c(cc7[nH]ncc57)CCC6)nccc4c23)C1`
Reply: 7.73

Ask: Form field: reported pIC50 of `Cc1cc2[nH]ncc2c(-c2nccc3c2sc2nc(OC[C@@]45CCCN4C[C@H](F)C5)nc(NC45CC(C4)C5)c23)c1C(F)(F)F`
Reply: 5.88

Ask: Any idea what its pIC50 is? The compound is `CC(=O)N1CC(Nc2nc(OC[C@@]34CCCN3C[C@H](F)C4)nc3sc4c(-c5c(C(F)(F)F)c(C)cc6[nH]ncc56)nccc4c23)C1`
Reply: 6.36

Ask: What does the data say about its pIC50? Entry: CC1c2c(cc3[nH]ncc3c2-c2nccc3c2sc2nc(OC[C@@]45CCCN4C[C@H](F)C5)nc(N4CCOC[C@@](C)(O)C4)c23)C(C)(C)C1(F)F (stereo partly drawn)
Reply: 6.66

Ask: Param item = `C[C@@]1(O)COCCN(c2nc(OC[C@@]34CCCN3C[C@H](F)C4)nc3sc4c(-c5c(C6=CCOC6)c(Cl)cc6[nH]ncc56)nccc4c23)C1` ; retrieve measured pIC50.
Reply: 6.36

Ask: Quick one: pIC50 for CCC1CCc2cc3[nH]ncc3c(-c3nccc4c3sc3nc(OC[C@@]56CCCN5C/C(=C\F)C6)nc(N5CCOC[C@@](C)(O)C5)c34)c21 (stereo partly drawn) ?
Reply: 8.78
